- Tested on: UACC-257 melanoma
- Assay Overview: NCI-60 one-dose screen, 48 h
- Study Conditions: 10 µM unless noted
The panel holds about 83,000 compounds, 20% with a hit somewhere; the sample as a whole holds those more often. Calls of active or inactive are those of the source. Rule for the calls: active = growth percent below 10; inactive = the rest.
Your response should consist of one outcome taken from y = active, n = inactive

COc1cc(-c2cc3ncccc3c3nc(OCCN(C)C)c4cccnc4c23)cc(OC)c1OC	n
COc1ccc(C(=O)/C=C/c2cc(-c3cc(OC)c(OC)c(OC)c3)n[nH]2)cc1OC	n
C#Cc1cccc(NC(=O)C2CCCN(C(=O)CCl)C2)c1 (stereo not drawn)	n
CC(=O)Cc1nsc(NC(=O)c2ccoc2COc2ccccc2)n1	n
O=P(O)(c1ccccc1)c1ccccc1I	n
Cn1c(/C(C#N)=C/c2ccc3ccccc3c2)cc2ccccc21	n
CCOC(=O)N1CCN(CCCCOc2ccc(C(C)(C)CC)cc2)CC1	n
Cc1ccc(/C=C(\C#N)c2cc3ccccc3n2C)cc1	n

Shifting focus to the molecule that follows.
Ask: What classification did `C[N+](C)(CCCCCC[N+](C)(C)C1c2ccccc2-c2ccccc21)C1c2ccccc2-c2ccccc21` end up with in this test?
Reply: n

====

- Test system: SK-MEL-28 melanoma
- Assay Overview: NCI-60 one-dose screen, 48 h (100 = growth as untreated, 0 = no growth, -100 = all killed)
- Study Conditions: 10 µM unless noted
Compounds without any hit were thinned out: in the full panel of roughly 83,000, 20% have a hit.
Readout Label: growth (%)
Give bare numbers, in %.

Solved entries (count: 5):
N#C/C(=C\c1ccc(-c2ccc(F)cc2)o1)c1nc(-c2ccco2)cs1	114
Cn1cc(-c2csc(-c3c[nH]c4ccc(F)cc34)n2)c2cccnc21	57.4
O=C(c1ccccc1)C(CN1CCOCC1)c1ccccc1 (stereo unspecified)	68.6
CC(=O)O[C@H]1CC[C@@]2(C)C(=CC[C@@H]3[C@@H]2CC[C@]2(C)C(=O)N(O)C(=O)C[C@@H]32)C1	89.6
Cc1oc(-c2ccccc2Cl)cc1C(=O)Nc1ccc(S(N)(=O)=O)cc1	101

Dear colleague, could you send me growth for each of the items below? Thanks.
1. N#Cc1cnc2cc(OC[C@@H](O)CO)c(NC(=O)CC3CSSC3)cc2c1Nc1ccc(OCc2cccc(F)c2)c(Cl)c1
2. O=C(O[C@@H]1Cc2c(O)cc(O)cc2O[C@@H]1c1cc(O)c(O)c(O)c1)c1cc(O)c2c(c1)OCO2
3. S=c1[nH]nc2ccccn12
4. Cc1csc(Nc2nc(-c3ccc(Cl)cc3)nc(C(Cl)(Cl)Cl)n2)n1
5. Brc1cnc2[nH]cc(-c3nnc(-c4ccccc4)o3)c2c1

Reply:
1: -71.9; 2: 101; 3: 109; 4: 92; 5: 90.9

Please give growth for each item listed below.
1. N#C/C(=C\c1ccc(-c2ccccc2)o1)c1nc(-c2ccco2)cs1
2. c1ccc(C2Cc3ccccc3C2=NC2CCCCC2)cc1 (stereo unspecified)
3. COc1ccc2[nH]cc(-c3nc(-c4c[nH]c5ncccc45)cs3)c2c1

Reply:
1: 105; 2: 114; 3: 69.9

I would be grateful if you could provide growth for each of the following entries.
1. COc1cc2ncnc(Nc3ccc(Oc4ccnc(C)c4)c(C)c3)c2cc1NC(=O)CC1CCSS1 (stereo unspecified)
2. Cc1ccccc1-c1nc(C(Cl)Cl)nc2cc(-c3ccccc3)nn12
3. CCOC(=O)c1ccc2c(c1)[n+](=O)c(C(=O)C1CCCS1)c(C(F)(F)F)n2[O-] (stereo unspecified)

Reply:
1: -66; 2: 97.3; 3: -93.6

Please give growth for each item listed below.
1. Nc1c2c(nc3ccc(Br)cc13)CC(c1ccccc1)CC2=O (stereo unspecified)
2. C=C(C)[C@@H]1CC[C@]2(CN)CC[C@]3(C)[C@H](CC[C@@H]4[C@@](C)(CCCN)[C@H](C(=C)C)CC[C@]43C)[C@@H]12
3. Clc1ccccc1-c1nc(Nc2nc3ccccc3s2)nc(C(Cl)(Cl)Cl)n1
4. O=C1/C(=C\c2ccco2)SC(=S)N1CCc1ccc(O)cc1
5. O=c1c(CNc2ccc(S(=O)(=O)Nc3ncccn3)cc2)coc2ccccc12

Reply:
1: 55.5; 2: 100; 3: 51.3; 4: 98.3; 5: 119
